- target_entity: Jak2 (Homo sapiens)
- Sequence (O60674 whole entry, species assumed): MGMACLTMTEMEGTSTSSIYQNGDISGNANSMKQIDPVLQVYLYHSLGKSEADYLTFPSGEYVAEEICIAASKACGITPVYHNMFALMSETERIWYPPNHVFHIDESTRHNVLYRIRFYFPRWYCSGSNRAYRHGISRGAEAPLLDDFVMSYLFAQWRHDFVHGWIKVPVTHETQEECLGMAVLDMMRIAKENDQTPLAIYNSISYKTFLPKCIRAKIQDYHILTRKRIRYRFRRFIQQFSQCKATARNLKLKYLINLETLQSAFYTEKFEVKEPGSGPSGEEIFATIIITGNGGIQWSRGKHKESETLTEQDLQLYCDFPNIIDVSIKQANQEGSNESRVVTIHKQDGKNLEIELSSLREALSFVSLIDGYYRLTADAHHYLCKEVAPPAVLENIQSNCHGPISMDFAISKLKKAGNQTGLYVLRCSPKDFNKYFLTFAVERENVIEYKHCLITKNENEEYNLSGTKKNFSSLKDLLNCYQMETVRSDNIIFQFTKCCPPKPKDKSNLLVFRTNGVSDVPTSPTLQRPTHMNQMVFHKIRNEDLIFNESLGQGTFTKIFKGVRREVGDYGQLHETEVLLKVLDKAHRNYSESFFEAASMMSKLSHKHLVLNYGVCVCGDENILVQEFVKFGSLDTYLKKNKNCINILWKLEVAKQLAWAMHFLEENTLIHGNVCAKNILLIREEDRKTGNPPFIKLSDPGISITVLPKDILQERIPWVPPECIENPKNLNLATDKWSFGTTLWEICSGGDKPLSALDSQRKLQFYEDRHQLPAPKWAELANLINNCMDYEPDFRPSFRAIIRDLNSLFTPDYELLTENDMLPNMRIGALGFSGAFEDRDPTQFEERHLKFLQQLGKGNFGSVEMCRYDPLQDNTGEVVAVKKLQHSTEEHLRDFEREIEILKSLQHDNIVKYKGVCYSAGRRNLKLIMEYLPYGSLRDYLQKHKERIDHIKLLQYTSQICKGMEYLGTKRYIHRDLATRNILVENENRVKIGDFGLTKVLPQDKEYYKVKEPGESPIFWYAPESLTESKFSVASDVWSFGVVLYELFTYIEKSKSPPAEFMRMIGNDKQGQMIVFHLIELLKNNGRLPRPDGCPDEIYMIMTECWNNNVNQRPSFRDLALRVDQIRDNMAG
- assay_details: In vitro kinase assay (Table 1)
- Type: biochemical
measurement_type: IC50

Entry CNC(=O)c1cc(Oc2ccc3nc(NC4CCCCC4O)sc3c2)ccn1 (stereo not shown) : reported IC50 = ?
> 25 µM

---

- target_entity: BAF/Tel-FLT1-Q1/sACP (Homo sapiens, UniProt P17948)
- Construct: fused on or other part: P41212 (Transcription factor ETV6)
- Sequence (P17948 827-1158 limits assumed): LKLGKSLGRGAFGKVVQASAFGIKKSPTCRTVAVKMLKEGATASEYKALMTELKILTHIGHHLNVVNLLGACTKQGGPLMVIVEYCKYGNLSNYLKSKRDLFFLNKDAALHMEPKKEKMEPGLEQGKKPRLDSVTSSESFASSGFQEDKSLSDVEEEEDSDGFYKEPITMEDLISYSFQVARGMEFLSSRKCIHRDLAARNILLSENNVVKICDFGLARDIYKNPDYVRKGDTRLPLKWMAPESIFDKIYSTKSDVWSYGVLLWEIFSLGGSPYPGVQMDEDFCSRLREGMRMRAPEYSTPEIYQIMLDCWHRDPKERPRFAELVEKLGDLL
- assay_details: BaF3 proliferation assay
- Assay type: cell-based, murine
measurement_type: EC50

Need EC50 of CNC(=O)c1cc(Oc2ccc3nc(NC4CCCCC4O)sc3c2)ccn1 (stereo not shown) , thanks.
> 10 µM

---

- target_entity: BAF/Tel-Lyn-1.2/sACP (Homo sapiens, UniProt P07948)
- Construct: fused on or other part: P41212 (Transcription factor ETV6)
- Sequence (P07948 247-501 limits assumed, change not shown): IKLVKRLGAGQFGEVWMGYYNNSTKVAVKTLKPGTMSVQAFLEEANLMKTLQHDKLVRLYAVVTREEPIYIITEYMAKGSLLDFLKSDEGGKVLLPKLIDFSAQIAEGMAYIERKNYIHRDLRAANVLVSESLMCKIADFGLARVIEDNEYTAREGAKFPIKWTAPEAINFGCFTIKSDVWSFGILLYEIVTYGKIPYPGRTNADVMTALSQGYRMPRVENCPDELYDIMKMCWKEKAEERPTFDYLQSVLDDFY
- assay_details: BaF3 proliferation assay
- Assay type: cell-based, murine
measurement_type: EC50

Quick check: EC50 of CNC(=O)c1cc(Oc2ccc3nc(NC4CCCCC4O)sc3c2)ccn1 (stereo not shown) [Compound (I)] ?
> 10 µM

---

- target_entity: BAF/Tel-FGFR2-Q1/sACP (Homo sapiens, UniProt P21802)
- Construct: fused on or other part: P41212 (Transcription factor ETV6)
- Sequence (P21802 481-770 limits assumed, change not shown): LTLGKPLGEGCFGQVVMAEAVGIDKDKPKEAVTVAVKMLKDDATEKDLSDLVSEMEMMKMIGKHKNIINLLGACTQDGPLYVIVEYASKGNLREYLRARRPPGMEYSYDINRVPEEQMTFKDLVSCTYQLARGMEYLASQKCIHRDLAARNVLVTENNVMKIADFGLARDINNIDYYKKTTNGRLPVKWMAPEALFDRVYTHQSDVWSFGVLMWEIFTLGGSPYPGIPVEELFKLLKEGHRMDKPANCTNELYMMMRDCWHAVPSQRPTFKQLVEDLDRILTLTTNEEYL
- assay_details: BaF3 proliferation assay
- Assay type: cell-based, murine
measurement_type: EC50

What measured EC50 goes with CNC(=O)c1cc(Oc2ccc3nc(NC4CCCCC4O)sc3c2)ccn1 (stereo not shown) [Compound (I)] ?
> 10 µM

---

- target_entity: BAF/Tel-FGFR4-Q4/sACP (Homo sapiens, UniProt P22455)
- Construct: fused on or other part: P41212 (Transcription factor ETV6)
- Sequence (P22455 467-755 limits assumed, change not shown): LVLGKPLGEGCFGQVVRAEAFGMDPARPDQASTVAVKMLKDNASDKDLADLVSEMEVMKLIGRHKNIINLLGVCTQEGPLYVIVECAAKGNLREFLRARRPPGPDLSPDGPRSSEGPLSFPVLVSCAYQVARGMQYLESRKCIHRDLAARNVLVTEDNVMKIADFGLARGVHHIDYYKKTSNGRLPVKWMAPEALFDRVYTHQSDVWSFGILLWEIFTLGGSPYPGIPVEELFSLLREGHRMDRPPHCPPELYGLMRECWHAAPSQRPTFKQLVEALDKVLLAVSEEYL
- assay_details: BaF3 proliferation assay
- Format: cell-based, murine
measurement_type: EC50

Report EC50 for CNC(=O)c1cc(Oc2ccc3nc(NC4CCCCC4O)sc3c2)ccn1 (stereo not shown) [Compound (I)] please.
> 10 µM

---

- target_entity: Hyl (Homo sapiens, UniProt P42679)
- Sequence (P42679 1-507): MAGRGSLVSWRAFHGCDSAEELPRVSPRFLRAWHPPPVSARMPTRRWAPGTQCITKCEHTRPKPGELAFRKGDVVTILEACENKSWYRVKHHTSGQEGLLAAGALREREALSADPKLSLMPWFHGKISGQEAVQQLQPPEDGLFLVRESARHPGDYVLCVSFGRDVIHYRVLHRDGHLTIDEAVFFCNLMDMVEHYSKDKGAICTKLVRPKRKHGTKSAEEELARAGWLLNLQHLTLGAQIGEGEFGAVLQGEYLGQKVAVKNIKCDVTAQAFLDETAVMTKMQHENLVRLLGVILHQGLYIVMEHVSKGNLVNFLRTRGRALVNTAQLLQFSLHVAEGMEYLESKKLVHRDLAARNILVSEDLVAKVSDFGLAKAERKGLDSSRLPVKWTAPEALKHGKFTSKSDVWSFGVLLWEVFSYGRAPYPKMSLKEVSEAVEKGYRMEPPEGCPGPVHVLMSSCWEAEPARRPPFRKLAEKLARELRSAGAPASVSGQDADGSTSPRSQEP
- assay_details: In vitro kinase assay (Table 1)
- Format: biochemical
measurement_type: IC50

If you can, please state the reported IC50 value of CNC(=O)c1cc(Oc2ccc3nc(NC4CCCCC4O)sc3c2)ccn1 (stereo not shown) .
> 10 µM

---

- target_entity: TSSK1 (Homo sapiens, UniProt Q9BXA7)
- Sequence (Q9BXA7 whole entry, species assumed): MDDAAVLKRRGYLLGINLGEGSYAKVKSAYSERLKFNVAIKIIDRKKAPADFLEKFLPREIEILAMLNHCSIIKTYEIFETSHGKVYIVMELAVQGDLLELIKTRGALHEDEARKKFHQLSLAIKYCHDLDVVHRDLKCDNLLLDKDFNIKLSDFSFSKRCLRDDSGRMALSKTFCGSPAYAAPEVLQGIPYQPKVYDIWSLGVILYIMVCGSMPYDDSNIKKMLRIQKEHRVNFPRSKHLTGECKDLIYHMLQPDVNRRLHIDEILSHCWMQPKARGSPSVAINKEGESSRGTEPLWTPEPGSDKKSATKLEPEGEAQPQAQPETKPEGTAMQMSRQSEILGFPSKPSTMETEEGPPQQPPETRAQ
- assay_details: In vitro kinase assay (Table 1)
- Assay type: biochemical
measurement_type: IC50

# lookup: IC50 of CNC(=O)c1cc(Oc2ccc3nc(NC4CCCCC4O)sc3c2)ccn1 (stereo not shown)
> 10 µM

---

- target_entity: PKC_alpha (Homo sapiens)
- assay_details: In vitro kinase assay (Table 1)
- Format: biochemical
measurement_type: IC50

Find the recorded IC50 belonging to CNC(=O)c1cc(Oc2ccc3nc(NC4CCCCC4O)sc3c2)ccn1 (stereo not shown) and report it.
> 10 µM

---

- System: all other BaF3 cell lines
- assay_details: BaF3 proliferation assays, all other cell lines
- Assay type: cell-based, murine
- condition_description: Mus musculus, read-out: Cellular EC50, all other BaF3 cell lines
pEC50: −log10 of the molar value.
measurement_type: pEC50

What value of measured pEC50 is listed for CNC(=O)c1cc(Oc2ccc3nc(NC4CCCCC4O)sc3c2)ccn1 (stereo not shown) [Compound (I)] ?
< 5.00

---

- target_entity: BAF/Tel-JAK1-S1.2/sACP (Homo sapiens, UniProt P23458)
- Construct: fused on or other part: P41212 (Transcription factor ETV6)
- assay_details: BaF3 proliferation assay
- Type: cell-based, murine
measurement_type: EC50

What does the record list as EC50 for CNC(=O)c1cc(Oc2ccc3nc(NC4CCCCC4O)sc3c2)ccn1 (stereo not shown) ?
> 10 µM

---

- target_entity: UniProtKB P51955
- assay_details: In vitro kinase assay (Table 1)
- Assay type: biochemical
measurement_type: IC50

Reported IC50, molecule CNC(=O)c1cc(Oc2ccc3nc(NC4CCCCC4O)sc3c2)ccn1 (stereo not shown) : ____
> 10 µM

---

- target_entity: Pim3 (Homo sapiens, UniProt Q86V86)
- assay_details: In vitro kinase assay (Table 1)
- Assay type: biochemical
measurement_type: IC50

Fill in: IC50 of CNC(=O)c1cc(Oc2ccc3nc(NC4CCCCC4O)sc3c2)ccn1 (stereo not shown) [Compound (I)] is ___
> 25 µM

---

- target_entity: BaF-Tpr-MET (Homo sapiens, UniProt P08581)
- Construct: expressed in transfected cells; host or cells: BaF3 (murine pro-B cell line); the other entry of the earlier key: TPR (P12270, Nucleoprotein TPR)
- Sequence (P08581 with tags, fused parts or gaps): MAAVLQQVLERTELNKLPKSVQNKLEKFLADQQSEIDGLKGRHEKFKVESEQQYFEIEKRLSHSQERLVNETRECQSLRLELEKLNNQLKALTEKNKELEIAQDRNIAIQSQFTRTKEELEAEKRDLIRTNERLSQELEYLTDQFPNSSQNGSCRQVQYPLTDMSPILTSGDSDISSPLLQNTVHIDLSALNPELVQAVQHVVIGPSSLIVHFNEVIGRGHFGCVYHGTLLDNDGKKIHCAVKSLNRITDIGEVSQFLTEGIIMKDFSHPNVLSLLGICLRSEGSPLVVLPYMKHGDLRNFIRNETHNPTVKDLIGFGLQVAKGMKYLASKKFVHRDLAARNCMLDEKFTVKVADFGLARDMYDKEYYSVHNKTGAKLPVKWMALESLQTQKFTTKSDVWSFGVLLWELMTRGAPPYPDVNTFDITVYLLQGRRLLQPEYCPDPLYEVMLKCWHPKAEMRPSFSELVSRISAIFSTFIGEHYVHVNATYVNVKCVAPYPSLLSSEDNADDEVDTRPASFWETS
- assay_details: BaF3 proliferation assay
- Type: cell-based, murine
measurement_type: EC50

Consider the molecule shown here: CNC(=O)c1cc(Oc2ccc3nc(NC4CCCCC4O)sc3c2)ccn1 (stereo not shown) [Compound (I)] What is its recorded EC50?
> 10 µM

---

- target_entity: PHKG2 (Homo sapiens, UniProt P15735)
- Sequence (P15735 whole entry, species assumed): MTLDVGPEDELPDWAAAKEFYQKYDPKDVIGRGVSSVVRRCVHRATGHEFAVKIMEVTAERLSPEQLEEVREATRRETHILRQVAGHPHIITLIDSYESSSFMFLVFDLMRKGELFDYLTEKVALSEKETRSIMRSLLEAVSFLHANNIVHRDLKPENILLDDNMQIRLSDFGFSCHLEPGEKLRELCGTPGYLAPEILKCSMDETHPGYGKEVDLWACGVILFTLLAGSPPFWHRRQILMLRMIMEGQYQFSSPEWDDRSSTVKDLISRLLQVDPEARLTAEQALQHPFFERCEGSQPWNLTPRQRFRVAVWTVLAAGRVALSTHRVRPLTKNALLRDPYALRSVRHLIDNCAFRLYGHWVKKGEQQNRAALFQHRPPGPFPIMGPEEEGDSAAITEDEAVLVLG
- assay_details: In vitro kinase assay (Table 1)
- Format: biochemical
measurement_type: IC50

Form field: reported IC50 of CNC(=O)c1cc(Oc2ccc3nc(NC4CCCCC4O)sc3c2)ccn1 (stereo not shown)
> 10 µM

---

- target_entity: mut_bRaf_V599E (Homo sapiens, UniProt P15056, V600E)
- assay_details: In vitro kinase assay (Table 1)
- Type: biochemical
measurement_type: IC50

Name the recorded IC50 for CNC(=O)c1cc(Oc2ccc3nc(NC4CCCCC4O)sc3c2)ccn1 (stereo not shown) .
> 25 µM

---

- target_entity: ZAP70 (Homo sapiens, UniProt P43403)
- Sequence (P43403 whole entry, species assumed): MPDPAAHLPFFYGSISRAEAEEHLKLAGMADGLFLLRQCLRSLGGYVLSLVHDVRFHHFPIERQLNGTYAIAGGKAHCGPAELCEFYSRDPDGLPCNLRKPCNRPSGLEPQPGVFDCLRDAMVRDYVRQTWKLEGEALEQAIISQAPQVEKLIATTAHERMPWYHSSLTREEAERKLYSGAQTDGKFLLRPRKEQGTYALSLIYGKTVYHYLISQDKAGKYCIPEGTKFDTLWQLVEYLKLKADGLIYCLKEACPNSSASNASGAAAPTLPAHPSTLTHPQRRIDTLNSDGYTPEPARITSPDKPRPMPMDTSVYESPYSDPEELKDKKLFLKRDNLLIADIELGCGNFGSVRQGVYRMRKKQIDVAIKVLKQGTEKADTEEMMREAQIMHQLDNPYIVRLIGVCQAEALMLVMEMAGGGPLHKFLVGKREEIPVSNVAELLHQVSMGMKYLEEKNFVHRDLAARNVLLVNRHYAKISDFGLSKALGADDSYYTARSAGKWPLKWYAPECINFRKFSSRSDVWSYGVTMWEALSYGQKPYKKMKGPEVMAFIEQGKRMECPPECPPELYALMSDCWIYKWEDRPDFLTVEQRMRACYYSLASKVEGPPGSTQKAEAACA
- assay_details: In vitro kinase assay (Table 1)
- Format: biochemical
measurement_type: IC50

Would you kindly share the measured IC50 for CNC(=O)c1cc(Oc2ccc3nc(NC4CCCCC4O)sc3c2)ccn1 (stereo not shown) [Compound (I)] ?
> 10 µM

---

- target_entity: RAF1_4_CR (Homo sapiens)
- Sequence (P04049 whole entry): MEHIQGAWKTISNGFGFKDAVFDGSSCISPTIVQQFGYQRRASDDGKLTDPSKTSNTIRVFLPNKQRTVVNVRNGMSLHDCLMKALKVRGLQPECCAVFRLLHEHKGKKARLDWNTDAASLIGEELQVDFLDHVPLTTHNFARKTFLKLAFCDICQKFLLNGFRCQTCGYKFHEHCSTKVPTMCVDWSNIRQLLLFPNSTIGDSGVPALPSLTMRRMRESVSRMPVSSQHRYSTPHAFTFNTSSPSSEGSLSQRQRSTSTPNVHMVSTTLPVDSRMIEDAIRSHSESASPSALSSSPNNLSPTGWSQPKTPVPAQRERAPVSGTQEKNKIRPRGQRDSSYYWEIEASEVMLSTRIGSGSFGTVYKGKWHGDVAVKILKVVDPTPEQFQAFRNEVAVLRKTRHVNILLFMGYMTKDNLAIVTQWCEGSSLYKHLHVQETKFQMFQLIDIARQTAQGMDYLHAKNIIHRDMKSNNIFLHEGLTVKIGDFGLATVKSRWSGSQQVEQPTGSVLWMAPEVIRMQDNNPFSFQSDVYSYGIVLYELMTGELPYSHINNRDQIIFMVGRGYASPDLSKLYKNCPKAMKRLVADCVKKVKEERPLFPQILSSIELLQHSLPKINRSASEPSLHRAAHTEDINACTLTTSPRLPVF
- assay_details: In vitro kinase assay (Table 1)
- Type: biochemical
measurement_type: IC50

What does the data say about its IC50? Entry: CNC(=O)c1cc(Oc2ccc3nc(NC4CCCCC4O)sc3c2)ccn1 (stereo not shown)
> 25 µM

---

- target_entity: BaF3-Tel-INSR 1.2 (Homo sapiens, UniProt P06213)
- Construct: fused on or other part: P41212 (Transcription factor ETV6)
- Sequence (P06213 1023-1298 limits assumed, stated change not applied): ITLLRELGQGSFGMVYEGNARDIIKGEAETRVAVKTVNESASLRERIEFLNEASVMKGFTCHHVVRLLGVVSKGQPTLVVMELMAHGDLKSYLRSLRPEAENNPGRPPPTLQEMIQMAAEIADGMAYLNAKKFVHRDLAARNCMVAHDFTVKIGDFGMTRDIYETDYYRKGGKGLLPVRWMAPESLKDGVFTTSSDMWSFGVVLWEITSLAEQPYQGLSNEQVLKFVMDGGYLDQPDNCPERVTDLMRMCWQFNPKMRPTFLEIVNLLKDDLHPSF
- assay_details: BaF3 proliferation assay
- Format: cell-based, murine
measurement_type: EC50

Requested field: EC50. Item: CNC(=O)c1cc(Oc2ccc3nc(NC4CCCCC4O)sc3c2)ccn1 (stereo not shown)
> 10 µM

---

- target_entity: smMLCK (Homo sapiens)
- assay_details: In vitro kinase assay (Table 1)
- Format: biochemical
measurement_type: IC50

Under smMLCK (Homo sapiens): IC50 value of CNC(=O)c1cc(Oc2ccc3nc(NC4CCCCC4O)sc3c2)ccn1 (stereo not shown) ?
> 10 µM
